Recorded values, source patent US20230192839A1.

Target: T1, human epidermal growth factor receptor antigen (human, UniProt P00533 25-645, limits assumed)
T1 construct: whole entry named; also called EGFR
Experiment: SPR (Biacore T200), 37 C, scFv-Fc, 0 uM MTX
recorded-endpoint: pKd
Scale note: pKd = -log10(concentration in M).

Consider the following illustrative entries.
[[record]]
binder = "P01_B06 scFv-Fc fusion (scFv, V domains shown, Tested as scFv-Fc fusion) VH: QVQLVESGGGLVQAGGSLRLSCAASRRSSRSWAMHWVRQAPGKGLEWVAVISYDGRLKYYADSVKGRFTISRDNAEYLVYLQMNSLRAEDTAVYYCAADTSMFASYDPMDVWGQGTLVTVSS VL: QSVLTQPPSASGTPGQRVTISCSGSSSNIGRNYVNWYQQLPGTAPKLLIYRDDHRPSGVPDRFSGSKSGTSASLAISGLRSEDEADYYCASWDDTLSGWVFGTGTKLTVL"
test_result = 6.64

[[record]]
binder = "P05_A11 scFv-Fc fusion (scFv, V domains shown, Tested as scFv-Fc fusion) VH: QVQLVESGGGLVQAGGSLRLSCAASRRSSRSWAMHWVRQAPGKGLEWVAVISYDGRLKYYADSVKGRFTISRDNAEYLVYLQMNSLRAEDTAVYYCAASDDADIFDDYSYGAMDYWGQGTLVTVSS VL: QSVLTQPPSASGTPGQRVTISCSGSSSNIGRNYVYWYQQLPGTAPKLLIYMTSQRPSGVPDRFSGSKSGTSASLAISGLRSEDEADYYCASWDDNLRAWVFGTGTKLTVL"
test_result = 6.63

[[record]]
binder = "P01_F02 scFv-Fc fusion (scFv, V domains shown, Tested as scFv-Fc fusion) VH: QVQLVESGGGLVQAGGSLRLSCAASRRSSRSWAMHWVRQAPGKGLEWVAVISYDGRLKYYADSVKGRFTISRDNAEYLVYLQMNSLRAEDTAVYYCAADVESALAYGEPYHHMDVWGQGTLVTVSS VL: QSVLTQPPSASGTPGQRVTISCSGSSSNIGRNYVYWYQQLPGTAPKLLIYRTSQRPSGVPDRFSGSKSGTSASLAISGLRSEDEADYYCATWDDSLSGWVFGTGTKLTVL"
test_result = 6.73


Okay, next one:
Look up pKd for this binder: P07_H08 scFv-Fc fusion (scFv, V domains shown, Tested as scFv-Fc fusion) VH: QVQLVESGGGLVQAGGSLRLSCAASRRSSRSWAMHWVRQAPGKGLEWVAVISYDGRLKYYADSVKGRFTISRDNAEYLVYLQMNSLRAEDTAVYYCAAGFDWGWDSSDIYSAMDYWGQGTLVTVSS VL: DIQMTQSPSSLSASVGDRVTITCRASQNIGRYLHWYQQKPGKAPKLLIYSASNLQSGVPSRFSGSGSGTDFTLTISSLQPEDFATYYCQQSYSSPFTFGQGTKVEIK
6.08
